B1: Caulobacter ParB omega fusion; a variant is named by its letters at X, in order, B8GW30 (parent)
chain: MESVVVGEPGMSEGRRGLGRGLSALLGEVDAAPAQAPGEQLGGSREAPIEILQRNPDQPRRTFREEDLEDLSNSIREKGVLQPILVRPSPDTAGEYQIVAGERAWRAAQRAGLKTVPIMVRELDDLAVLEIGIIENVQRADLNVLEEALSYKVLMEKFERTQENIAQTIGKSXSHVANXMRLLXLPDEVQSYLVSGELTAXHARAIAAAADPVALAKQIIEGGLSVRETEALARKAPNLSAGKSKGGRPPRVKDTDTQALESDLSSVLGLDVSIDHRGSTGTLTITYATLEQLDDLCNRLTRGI

Variants of: B1
Assay: one-hybrid fitness for binding NBS DNA (the Noc-binding site; scaled: cognate 1, non-cognate 0); higher = stronger binding
Conditions: with NBS DNA site
The full ranking holds about 81,000 sequences; the median of “one-hybrid fitness for binding NBS DNA” is about -0.1, and the highest 2% start at about 0.36. This is one part of a sample in which the highest values are shown more often than they occur.

[
  {
    "sequenceVariant": "RRMT",
    "one-hybrid fitness for binding NBS DNA": 0.776
  },
  {
    "sequenceVariant": "RPRR",
    "one-hybrid fitness for binding NBS DNA": "≤ 0.2"
  },
  {
    "sequenceVariant": "GQRG",
    "one-hybrid fitness for binding NBS DNA": "≤ 0.2"
  },
  {
    "sequenceVariant": "RLKC",
    "one-hybrid fitness for binding NBS DNA": 0.335
  },
  {
    "sequenceVariant": "PVMQ",
    "one-hybrid fitness for binding NBS DNA": "≤ 0.2"
  },
  {
    "sequenceVariant": "PKNM",
    "one-hybrid fitness for binding NBS DNA": "≤ 0.2"
  },
  {
    "sequenceVariant": "RDRR",
    "one-hybrid fitness for binding NBS DNA": "≤ 0.2"
  },
  {
    "sequenceVariant": "TWNS",
    "one-hybrid fitness for binding NBS DNA": "≤ 0.2"
  },
  {
    "sequenceVariant": "RFDR",
    "one-hybrid fitness for binding NBS DNA": "≤ 0.2"
  },
  {
    "sequenceVariant": "RKVV",
    "one-hybrid fitness for binding NBS DNA": "≤ 0.2"
  },
  {
    "sequenceVariant": "RFRR",
    "one-hybrid fitness for binding NBS DNA": 0.486
  },
  {
    "sequenceVariant": "QWKF",
    "one-hybrid fitness for binding NBS DNA": "≤ 0.2"
  },
  {
    "sequenceVariant": "NQFD",
    "one-hybrid fitness for binding NBS DNA": "≤ 0.2"
  },
  {
    "sequenceVariant": "RMKC",
    "one-hybrid fitness for binding NBS DNA": 0.4
  },
  {
    "sequenceVariant": "QHIC",
    "one-hybrid fitness for binding NBS DNA": "≤ 0.2"
  },
  {
    "sequenceVariant": "RCRR",
    "one-hybrid fitness for binding NBS DNA": 0.77
  },
  {
    "sequenceVariant": "RFYR",
    "one-hybrid fitness for binding NBS DNA": "≤ 0.2"
  },
  {
    "sequenceVariant": "RSIR",
    "one-hybrid fitness for binding NBS DNA": 0.207
  },
  {
    "sequenceVariant": "RSPR",
    "one-hybrid fitness for binding NBS DNA": "≤ 0.2"
  },
  {
    "sequenceVariant": "TDSA",
    "one-hybrid fitness for binding NBS DNA": "≤ 0.2"
  },
  {
    "sequenceVariant": "RSYC",
    "one-hybrid fitness for binding NBS DNA": "≤ 0.2"
  },
  {
    "sequenceVariant": "WVVG",
    "one-hybrid fitness for binding NBS DNA": "≤ 0.2"
  }
]
